TESTED_TARGET: T1, htau40 (Homo sapiens, UniProt P10636)
T1 construct: Full length tau (hT40)
T1 sequence (P10636 1-441 isoform P10636-8): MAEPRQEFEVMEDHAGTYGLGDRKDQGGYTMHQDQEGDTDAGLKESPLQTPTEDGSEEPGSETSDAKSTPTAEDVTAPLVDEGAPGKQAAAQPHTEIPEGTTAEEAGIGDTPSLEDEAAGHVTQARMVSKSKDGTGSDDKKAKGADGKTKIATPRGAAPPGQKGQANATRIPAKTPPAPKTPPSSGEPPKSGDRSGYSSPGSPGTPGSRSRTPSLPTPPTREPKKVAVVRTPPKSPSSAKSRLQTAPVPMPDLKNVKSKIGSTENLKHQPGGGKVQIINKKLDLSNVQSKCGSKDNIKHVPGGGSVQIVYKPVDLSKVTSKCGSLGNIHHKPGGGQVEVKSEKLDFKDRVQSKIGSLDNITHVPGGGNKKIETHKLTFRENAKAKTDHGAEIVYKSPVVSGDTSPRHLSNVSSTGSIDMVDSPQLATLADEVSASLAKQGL
MEASUREMENT_DESCRIPTION: Biacore X100 SPR kinetics of anti-tau mAbs on immobilised htau40
Type: binding
TEST_SETTINGS: Table 27; mAb format, immobilised htau40
Quick reference for kd among some molecules
Give the value in s⁻¹ but do not write s⁻¹ after it.

Exam item: Report kd for CA4: anti-tau core clone, Table 10; SEQ ID NO: 368 (protein, CA4 amino acid sequence) scFv: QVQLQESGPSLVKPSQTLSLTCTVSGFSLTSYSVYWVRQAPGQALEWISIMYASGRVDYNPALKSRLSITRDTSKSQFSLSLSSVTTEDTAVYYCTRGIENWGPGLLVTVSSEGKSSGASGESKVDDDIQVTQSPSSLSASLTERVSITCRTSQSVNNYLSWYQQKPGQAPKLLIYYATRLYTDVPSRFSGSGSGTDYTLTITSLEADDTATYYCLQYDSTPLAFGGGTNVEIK
Marked response: 0.001276

Exam item: Report kd for S1D12: sheep-derived anti-tau core clone; scFv SEQ ID NO: 32, VH 443, VL 444 (protein, S1D12 amino acid sequence) scFv: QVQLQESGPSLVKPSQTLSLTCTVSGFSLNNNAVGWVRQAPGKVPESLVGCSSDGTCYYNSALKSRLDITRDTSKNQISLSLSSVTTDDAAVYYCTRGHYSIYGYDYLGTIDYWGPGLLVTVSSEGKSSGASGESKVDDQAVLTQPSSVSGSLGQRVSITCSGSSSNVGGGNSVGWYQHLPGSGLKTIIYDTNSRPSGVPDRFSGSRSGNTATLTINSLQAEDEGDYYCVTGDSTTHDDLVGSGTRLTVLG
Marked response: 4.093e-05

API: the following record is the query input.
Exam item: Report kd for CB7: human-specific N-terminal anti-tau clone, Table 10; SEQ ID NO: 364 (protein, CB7 amino acid sequence) scFv: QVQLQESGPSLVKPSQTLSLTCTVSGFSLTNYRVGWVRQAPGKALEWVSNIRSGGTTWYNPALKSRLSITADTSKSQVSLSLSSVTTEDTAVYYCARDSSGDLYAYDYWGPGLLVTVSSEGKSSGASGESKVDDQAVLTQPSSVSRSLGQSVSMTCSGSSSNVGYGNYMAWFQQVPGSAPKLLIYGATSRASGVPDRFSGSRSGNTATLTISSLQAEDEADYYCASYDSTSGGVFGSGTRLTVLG
Marked response: 0.009451

Every entry's value here was drawn from patent US20250355001A1.
